Test: Effect on Wnt signaling pathway in human SW480 cells harbouring TCF/LEF luciferase reporter gene and SP5-Luc reporter gene incubated for 36 to 48 hrs by luminescence assay
Type: cell-based
pEC50: −log10 of the molar value.
Readout Type: pEC50

1: O=C(Nc1cncc(-c2ccc3[nH]nc(-c4cc5c(-c6cccnc6)nccc5[nH]4)c3c2)c1)c1ccccc1
2: c1cc(-c2ccoc2)c2cc(-c3n[nH]c4ccc(-c5cncc(CNCC6CCCC6)c5)nc34)[nH]c2c1
Problem: Between these two entries, 1 and 2 , state which has the higher pEC50. Give the chosen item's label as your response.
Result: 1

a: FC1(F)CCN(Cc2cncc(-c3ccc4[nH]nc(-c5cc6c(-c7ccccn7)cccc6[nH]5)c4n3)c2)C1
b: Cc1n[nH]c2ccc(-c3cncc(N[C@H]4CC[C@H](O)CC4)n3)cc12
c: O=C(Nc1cncc(-c2cnc3[nH]nc(-c4nc5c(-c6cccnc6)cncc5[nH]4)c3c2)c1)C1CC1
d: CN1CCC(n2cc(C(=O)Nc3cc4cc(-c5cnn(C)c5)ccc4cn3)cn2)CC1
e: O=C(Nc1cncc(-c2ccc3[nH]nc(-c4nc5ccncc5[nH]4)c3c2)c1)C1CC1
Problem: Endpoint returns the given compounds ordered by ascending pEC50. Return the labels ranked in the requested order, please.
Result: a, b, c, d, e
(a: 6.36, b: 7.02, c: 7.63, d: 7.85, e: 8.10)

All values here come from ChEMBL document CHEMBL4739717.
